Molecular target: RET (Homo sapiens)
Assay: Inhibition of RET kinase activity, recombinant RET method (Kinase-Glo)
Conditions: RET 2 μg/ml, poly-EY4 substrate, 20 μM ATP, two hours at 30° C.
pIC50: −log10 of the molar value. Structures can show the parent of a compound that is named as a salt.
Each entry below lists one item and its recorded pIC50 value.

molecule | recorded result
CCOC(=O)c1c[nH]c2c(=O)[nH]c3ccc(S(=O)(=O)Nc4ccc(F)cc4C)cc3c12 | > 7.00

Provide the documented pIC50 with RET (Homo sapiens) as the system for CCCOC(=O)c1c[nH]c2c(=O)[nH]c3ccc(S(=O)(=O)N(C[C@@H]4CCCN4)C4CC4)cc3c12 [Compound 144, hydrochloride]
> 7.00

Provide the documented pIC50 with RET (Homo sapiens) as the system for `CCNc1nccc(-c2ccc3[nH]c(=O)c4[nH]cc(C(=O)OCC)c4c3c2)n1`
6.00 to 7.00

Provide the documented pIC50 with RET (Homo sapiens) as the system for CCCOC(=O)c1c[nH]c2c(=O)[nH]c3ccc(S(=O)(=O)N(C[C@H](C)N)C4CC4)cc3c12 [Compound 153, hydrochloride]
> 7.00

Provide the documented pIC50 with RET (Homo sapiens) as the system for `O=C(NCc1ccccc1)c1c[nH]c2c(=O)[nH]c3ccccc3c12`
4.00 to 5.00

Provide the documented pIC50 with RET (Homo sapiens) as the system for `CCCOC(=O)c1c[nH]c2c(=O)[nH]c3ccc(S(=O)(=O)N4CC[C@H](NC(=O)OC(C)(C)C)C4)cc3c12`
5.00 to 6.00

Provide the documented pIC50 with RET (Homo sapiens) as the system for O=C(OCC1CCOC1)c1c[nH]c2c(=O)[nH]c3ccc(S(=O)(=O)NC4CCNCC4)cc3c12 (stereo not shown)
6.00 to 7.00

====

Each entry below lists one item and its recorded IC50 value.
Biological target: RET (Homo sapiens)
Test: Inhibition of RET kinase activity, recombinant RET method (Kinase-Glo)
Details: RET 2 μg/ml, poly-EY4 substrate, 20 μM ATP, two hours at 30° C.

Please report the recorded IC50 for CCOC(=O)c1c[nH]c2c(=O)[nH]c3ccc(Sc4cccc(NC(C)=O)c4)cc3c12 [Compound 225] .
100 to 1000 nM

====

# IC50 per entry for TrkB (Homo sapiens)

For orientation, consider the following solved cases.
compound | IC50
COC(=O)c1c[nH]c2c(=O)[nH]c3ccc(S(=O)(=O)NC4CCCCC4)cc3c12 [Compound 111] | 1 to 10 µM
CCNc1nccc(-c2ccc3[nH]c(=O)c4[nH]cc(C(=O)OCC)c4c3c2)n1 [Compound 264] | 10 to 100 µM
CCOC(=O)c1c[nH]c2c(=O)[nH]c3ccc(-c4ccnc(Nc5nc6ccccc6[nH]5)n4)cc3c12 [Compound 267] | 10 to 100 µM

Here is the next item to consider.
Provide the documented IC50 with TrkB (Homo sapiens) as the system for CCOC(=O)c1c[nH]c2c(=O)[nH]c3ccc(-c4cccc(N)c4)cc3c12 [Compound 234]
Sequence (Q16620 32-822): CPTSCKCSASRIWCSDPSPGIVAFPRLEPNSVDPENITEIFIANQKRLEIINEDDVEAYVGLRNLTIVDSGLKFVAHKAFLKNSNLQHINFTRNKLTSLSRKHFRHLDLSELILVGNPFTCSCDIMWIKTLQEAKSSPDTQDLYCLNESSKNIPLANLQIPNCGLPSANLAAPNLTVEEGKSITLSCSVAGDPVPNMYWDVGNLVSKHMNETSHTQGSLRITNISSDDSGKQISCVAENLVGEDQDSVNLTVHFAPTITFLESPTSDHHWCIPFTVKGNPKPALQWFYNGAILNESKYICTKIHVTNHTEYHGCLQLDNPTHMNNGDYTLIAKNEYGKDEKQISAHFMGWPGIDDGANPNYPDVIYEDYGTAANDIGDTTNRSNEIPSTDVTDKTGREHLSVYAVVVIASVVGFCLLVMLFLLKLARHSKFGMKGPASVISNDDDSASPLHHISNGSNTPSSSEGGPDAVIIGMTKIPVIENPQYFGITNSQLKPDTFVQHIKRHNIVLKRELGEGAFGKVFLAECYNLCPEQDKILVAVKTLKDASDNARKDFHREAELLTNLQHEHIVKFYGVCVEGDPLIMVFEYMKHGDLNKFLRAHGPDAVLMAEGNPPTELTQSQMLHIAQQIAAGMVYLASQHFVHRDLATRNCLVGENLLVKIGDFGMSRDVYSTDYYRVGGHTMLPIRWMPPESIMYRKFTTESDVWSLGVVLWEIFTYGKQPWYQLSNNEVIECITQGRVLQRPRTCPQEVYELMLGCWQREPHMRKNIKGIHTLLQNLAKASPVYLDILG
1 to 10 µM

====

# pIC50 per entry for PIM-1 (Homo sapiens)
pIC50: −log10 of the molar value. Counter-ions that a name gives are not always drawn.

For orientation, consider the following solved cases.
compound | pIC50
O=C(OCC1CCOC1)c1c[nH]c2c(=O)[nH]c3ccc(S(=O)(=O)NC4CCNCC4)cc3c12 (stereo not shown) [Compound 118] | 4.00 to 5.00
CN(C)CCNC(=O)c1c[nH]c2c(=O)[nH]c3ccccc3c12 [Compound 79] | 4.00 to 5.00
CCOC(=O)c1c[nH]c2c(=O)[nH]c3ccc(-c4ccnc(N(C)CCN(C)C)n4)cc3c12 [Compound 269, formate] | 5.00 to 6.00
CCOC(=O)c1c[nH]c2c(=O)[nH]c3ccc([N+](=O)[O-])cc3c12 [Compound 66] | 5.00 to 6.00
CCOC(=O)c1c[nH]c2c(=O)[nH]c3ccc(-c4csc(C5CCNCC5)n4)cc3c12 [Compound 277] | 5.00 to 6.00
CCOC(=O)c1c[nH]c2c(=O)[nH]c3ccc(-c4ccnc(N5CCN(C(C)=O)CC5)n4)cc3c12 [Compound 268] | 5.00 to 6.00

Please report the recorded pIC50 for CCOC(=O)c1c[nH]c2c(=O)[nH]c3ccc(S(=O)(=O)NCC4CCNCC4)cc3c12 [Compound 121] .
5.00 to 6.00

====

Target: RET (Homo sapiens, UniProt P07949)
Sequence (P07949 29-1114): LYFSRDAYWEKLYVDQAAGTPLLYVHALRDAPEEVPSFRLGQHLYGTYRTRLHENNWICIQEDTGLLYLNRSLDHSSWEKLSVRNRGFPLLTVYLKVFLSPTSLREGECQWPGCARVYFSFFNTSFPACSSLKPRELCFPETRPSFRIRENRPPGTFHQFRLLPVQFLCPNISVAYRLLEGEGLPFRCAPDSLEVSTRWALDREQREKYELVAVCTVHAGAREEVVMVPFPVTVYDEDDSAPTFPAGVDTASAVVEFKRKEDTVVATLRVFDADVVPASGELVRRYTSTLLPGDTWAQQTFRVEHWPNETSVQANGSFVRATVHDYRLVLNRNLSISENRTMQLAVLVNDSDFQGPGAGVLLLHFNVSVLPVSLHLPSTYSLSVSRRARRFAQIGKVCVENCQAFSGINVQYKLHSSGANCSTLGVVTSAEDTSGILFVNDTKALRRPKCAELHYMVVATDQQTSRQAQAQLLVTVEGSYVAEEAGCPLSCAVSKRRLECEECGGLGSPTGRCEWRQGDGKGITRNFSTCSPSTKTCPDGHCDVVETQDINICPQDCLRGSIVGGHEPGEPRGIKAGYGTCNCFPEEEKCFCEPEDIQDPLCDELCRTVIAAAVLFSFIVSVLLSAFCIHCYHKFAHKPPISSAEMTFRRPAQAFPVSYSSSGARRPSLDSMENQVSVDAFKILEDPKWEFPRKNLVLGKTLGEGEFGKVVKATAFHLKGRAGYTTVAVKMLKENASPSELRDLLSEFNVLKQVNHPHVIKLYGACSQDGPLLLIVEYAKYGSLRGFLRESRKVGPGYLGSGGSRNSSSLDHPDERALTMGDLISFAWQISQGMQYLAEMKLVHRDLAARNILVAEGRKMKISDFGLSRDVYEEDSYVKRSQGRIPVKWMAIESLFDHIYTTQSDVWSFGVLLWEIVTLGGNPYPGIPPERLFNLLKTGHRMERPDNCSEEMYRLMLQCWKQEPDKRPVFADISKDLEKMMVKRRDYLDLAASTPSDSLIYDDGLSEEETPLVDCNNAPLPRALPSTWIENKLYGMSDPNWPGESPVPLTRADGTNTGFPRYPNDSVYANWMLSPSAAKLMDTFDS
Test: Inhibition of RET kinase activity, recombinant RET method (Kinase-Glo)
Details: RET 2 μg/ml, poly-EY4 substrate, 20 μM ATP, two hours at 30° C.
Counter-ions that a name gives are not always drawn.
recorded metric: IC50

For orientation, consider the following solved cases.
molecule | recorded metric | recorded result
CCOC(=O)c1c[nH]c2c(=O)[nH]c3cc(Cl)c(-c4cccc(S(C)(=O)=O)c4)cc3c12 [Compound 257] | IC50 | 100 to 1000 nM
CCOC(=O)c1c[nH]c2c(=O)[nH]c3ccc(S(=O)(=O)NCCCN(C)C)cc3c12 [Compound 32] | IC50 | 100 to 1000 nM
CN(c1ccc(F)cc1)S(=O)(=O)c1ccc2[nH]c(=O)c3[nH]cc(C(=O)O)c3c2c1 [Compound 103] | IC50 | 10000 to 100000 nM
CCOC(=O)c1c[nH]c2c(=O)[nH]c3ccc(-c4ccc(NC(=O)OC(C)(C)C)cc4)cc3c12 [Compound 243] | IC50 | 1000 to 10000 nM

Please report the recorded IC50 for CCCOC(=O)c1c[nH]c2c(=O)[nH]c3ccc(S(=O)(=O)N(C)CC4OCCO4)cc3c12 [Compound 129] .
100 to 1000 nM

Please report the recorded IC50 for CCCOC(=O)c1c[nH]c2c(=O)[nH]c3ccc(S(=O)(=O)N(CC)[C@H]4CCN(C)C4)cc3c12 [Compound 161] .
< 100 nM

Please report the recorded IC50 for CCCOC(=O)c1c[nH]c2c(=O)[nH]c3ccc(S(=O)(=O)N(CC(C)(C)NC)C4CC4)cc3c12 [Compound 141, hydrochloride] .
100 to 1000 nM

====

Each entry below lists one item and its recorded IC50 value.
Molecular target: UniProt P07949
Assay: Inhibition of RET kinase activity, recombinant RET method (Kinase-Glo)
Details: RET 2 μg/ml, poly-EY4 substrate, 20 μM ATP, two hours at 30° C.

item smiles | IC50
COC(=O)c1c[nH]c2c(=O)[nH]c3ccc(S(=O)(=O)N4CCN(C)CC4)cc3c12 | 1000 to 10000 nM
CCOC(=O)c1c[nH]c2c(=O)[nH]c3ccc(-c4csc(CSc5ccccc5)n4)cc3c12 | 100 to 1000 nM
CN(CC(N)=O)S(=O)(=O)c1ccc2[nH]c(=O)c3[nH]cc(C(=O)O)c3c2c1 | 1000 to 10000 nM
CCOC(=O)/C=C/c1ccc2[nH]c(=O)c3[nH]cc(C(=O)OCC)c3c2c1 | 1000 to 10000 nM
CCOC(=O)c1c[nH]c2c(=O)[nH]c3ccc(-c4ccc5c(ccn5C(=O)OC(C)(C)C)c4)cc3c12 | 1000 to 10000 nM

Please report the recorded IC50 for `CC(C)OC(=O)c1c[nH]c2c(=O)[nH]c3ccccc3c12` .
1000 to 10000 nM

Please report the recorded IC50 for `CCOC(=O)c1c[nH]c2c(=O)[nH]c3ccc(S(=O)(=O)NC[C@H]4CCNC4)cc3c12` .
100 to 1000 nM

Please report the recorded IC50 for `COC(=O)c1c[nH]c2c(=O)[nH]c3ccc(S(=O)(=O)NC4CCCCC4)cc3c12` .
1000 to 10000 nM

====

Molecular target: ALK (Homo sapiens, UniProt Q9UM73)
Sequence (Q9UM73 19-1620, species assumed): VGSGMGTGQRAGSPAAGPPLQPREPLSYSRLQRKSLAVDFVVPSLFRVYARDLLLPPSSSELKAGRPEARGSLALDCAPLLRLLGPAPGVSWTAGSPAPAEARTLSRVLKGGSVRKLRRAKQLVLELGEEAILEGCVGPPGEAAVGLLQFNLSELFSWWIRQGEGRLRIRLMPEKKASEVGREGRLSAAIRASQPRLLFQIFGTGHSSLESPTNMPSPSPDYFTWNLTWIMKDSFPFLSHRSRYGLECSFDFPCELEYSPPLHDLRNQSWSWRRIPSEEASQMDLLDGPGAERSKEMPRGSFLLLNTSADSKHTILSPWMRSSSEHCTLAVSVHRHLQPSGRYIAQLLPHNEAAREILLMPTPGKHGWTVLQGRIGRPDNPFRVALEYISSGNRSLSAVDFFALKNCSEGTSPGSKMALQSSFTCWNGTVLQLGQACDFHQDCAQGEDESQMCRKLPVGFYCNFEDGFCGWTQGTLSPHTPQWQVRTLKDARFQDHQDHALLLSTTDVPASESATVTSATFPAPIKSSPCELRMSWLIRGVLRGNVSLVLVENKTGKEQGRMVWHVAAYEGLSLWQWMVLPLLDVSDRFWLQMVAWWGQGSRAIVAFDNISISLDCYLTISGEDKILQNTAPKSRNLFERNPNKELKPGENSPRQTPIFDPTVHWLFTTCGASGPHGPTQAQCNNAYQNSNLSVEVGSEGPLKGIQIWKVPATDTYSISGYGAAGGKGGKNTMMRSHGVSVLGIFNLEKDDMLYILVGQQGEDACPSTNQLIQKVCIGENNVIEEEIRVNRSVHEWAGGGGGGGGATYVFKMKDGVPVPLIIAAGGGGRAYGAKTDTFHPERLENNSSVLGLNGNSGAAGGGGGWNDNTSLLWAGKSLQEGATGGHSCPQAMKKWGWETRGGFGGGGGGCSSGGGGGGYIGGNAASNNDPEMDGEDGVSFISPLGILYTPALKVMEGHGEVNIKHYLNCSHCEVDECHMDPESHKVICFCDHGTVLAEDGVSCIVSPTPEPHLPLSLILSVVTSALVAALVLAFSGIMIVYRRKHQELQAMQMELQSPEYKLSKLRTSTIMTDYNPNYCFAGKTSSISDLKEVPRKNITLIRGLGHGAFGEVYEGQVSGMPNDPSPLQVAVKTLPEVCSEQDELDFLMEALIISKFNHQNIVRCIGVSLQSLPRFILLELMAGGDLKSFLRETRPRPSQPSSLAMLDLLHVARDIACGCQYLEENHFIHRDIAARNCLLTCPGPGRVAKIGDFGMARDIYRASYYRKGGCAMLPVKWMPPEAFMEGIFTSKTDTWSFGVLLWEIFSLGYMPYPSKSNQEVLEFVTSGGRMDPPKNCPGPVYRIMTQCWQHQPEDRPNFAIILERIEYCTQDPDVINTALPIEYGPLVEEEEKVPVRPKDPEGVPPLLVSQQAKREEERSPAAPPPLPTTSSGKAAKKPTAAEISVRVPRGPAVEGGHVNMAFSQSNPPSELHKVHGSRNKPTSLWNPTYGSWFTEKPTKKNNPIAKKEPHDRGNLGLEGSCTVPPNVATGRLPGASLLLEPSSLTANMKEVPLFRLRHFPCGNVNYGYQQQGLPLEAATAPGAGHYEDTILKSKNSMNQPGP
Structures can show the parent of a compound that is named as a salt.
Each entry below lists one item and its recorded IC50 value.

compound | recorded result
CCCOC(=O)c1c[nH]c2c(=O)[nH]c3ccc(S(=O)(=O)N(C)CC(N)=O)cc3c12 [Compound 177] | 100 to 1000 nM

Please report the recorded IC50 for CCCOC(=O)c1c[nH]c2c(=O)[nH]c3ccc(S(=O)(=O)N(C[C@@H](C)N)C4CC4)cc3c12 [Compound 155, hydrochloride] .
100 to 1000 nM

Please report the recorded IC50 for CCCOC(=O)c1c[nH]c2c(=O)[nH]c3ccc(S(=O)(=O)N(C[C@@H]4CCCN4)C4CC4)cc3c12 [Compound 144, hydrochloride] .
100 to 1000 nM

Please report the recorded IC50 for CCCOC(=O)c1c[nH]c2c(=O)[nH]c3ccc(S(=O)(=O)N(C[C@H](C)N)C4CC4)cc3c12 [Compound 153, hydrochloride] .
100 to 1000 nM

Please report the recorded IC50 for CCOC(=O)c1c[nH]c2c(=O)[nH]c3ccc(S(=O)(=O)NC4CN5CCC4CC5)cc3c12 (stereo not drawn) [Compound 94] .
100 to 1000 nM

Please report the recorded IC50 for CCOC(=O)c1c[nH]c2c(=O)[nH]c3ccc(C(=O)N(C[C@@H]4CCCN4)C4CC4)cc3c12 [Compound 219, hydrochloride] .
1000 to 10000 nM

Data origin, for the record: patent US8426437B2
